Reported values of Residual Binding of Y1 (% of baseline) for individual entries
- Test system: Y1 binding to purified glycocalicin
- test method notes: ELISA: effect of synthetic GPIbα peptides on Y1 binding to purified glycocalicin
- Set-up: species or system human
- condition notes: peptide 2.5 μM; 0.25 μg/well Y1
Non-standard residues stand in square brackets, D forms with d. No end group written: not given here. sY = N[C@@H](Cc1ccc(OS(=O)(=O)O)cc1)C(=O)O

Example entries begin here.
substance="REEGRQHFFLLEGRSSYS [negative control peptide, reference compound]" tgt="Y1 binding to purified glycocalicin" property="Residual Binding of Y1 (% of baseline)" readout_value="100 % of baseline"
substance="GDEGDTDLY*DY*Y*PEEDTE (GDEGDTDL[sY]D[sY][sY]PEEDTE) [P-1-S, residues 268-285 of GPIbα, Y* sulfated tyrosine]" tgt="Y1 binding to purified glycocalicin" property="Residual Binding of Y1 (% of baseline)" readout_value="62 % of baseline"

Sample TDLY*DY*Y*PEEDTE (TDL[sY]D[sY][sY]PEEDTE) [P-2-S, residues 273-285 of GPIbα, Y* sulfated tyrosine] — what was its Residual Binding of Y1 (% of baseline)?
52 % of baseline

Sample GDEGDTDLYDYYPEEDTE [P-1, residues 268-285 of GPIbα, non-sulfated] — what was its Residual Binding of Y1 (% of baseline)?
94 % of baseline

Sample GDEGDTDLY*DY*Y*P (GDEGDTDL[sY]D[sY][sY]P) [P-3-S, residues 268-280 of GPIbα, Y* sulfated tyrosine] — what was its Residual Binding of Y1 (% of baseline)?
67 % of baseline
